Data provenance is ChEMBL document CHEMBL4052747.

molecular target: Kappa-type opioid receptor (Homo sapiens, UniProt P41145); experiment: Agonist activity at human kappa opioid receptor
Sequence (P41145 whole entry): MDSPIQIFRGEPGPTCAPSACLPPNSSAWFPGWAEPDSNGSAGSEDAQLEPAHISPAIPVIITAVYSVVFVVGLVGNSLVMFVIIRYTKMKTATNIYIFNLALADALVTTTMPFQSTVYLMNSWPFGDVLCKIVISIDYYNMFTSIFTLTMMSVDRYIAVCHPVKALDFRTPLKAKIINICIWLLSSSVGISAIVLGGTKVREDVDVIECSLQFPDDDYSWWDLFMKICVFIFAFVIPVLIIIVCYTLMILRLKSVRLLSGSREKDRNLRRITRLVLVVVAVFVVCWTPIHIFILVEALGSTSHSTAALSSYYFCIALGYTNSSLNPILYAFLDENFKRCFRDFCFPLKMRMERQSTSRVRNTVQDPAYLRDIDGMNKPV
pEC50: −log10 of the molar value.
Endpoint: pEC50

1. CN(C(=O)/C=C/c1ccoc1)[C@@H]1CC[C@@]2(O)[C@H]3[C@@H](O)c4ccc(O)c5c4[C@@]2(CCN3CC2CC2)[C@H]1O5 = 10.60

====

target: Mu-type opioid receptor (Homo sapiens, UniProt P35372); assay: Agonist activity at human mu opioid receptor expressed in CHO-dhfr(-) cells assessed as inhibition of forskolin-induced cAMP accumulation by TR-FRET assay; type: functional, cell-based
Sequence (P35372 whole entry): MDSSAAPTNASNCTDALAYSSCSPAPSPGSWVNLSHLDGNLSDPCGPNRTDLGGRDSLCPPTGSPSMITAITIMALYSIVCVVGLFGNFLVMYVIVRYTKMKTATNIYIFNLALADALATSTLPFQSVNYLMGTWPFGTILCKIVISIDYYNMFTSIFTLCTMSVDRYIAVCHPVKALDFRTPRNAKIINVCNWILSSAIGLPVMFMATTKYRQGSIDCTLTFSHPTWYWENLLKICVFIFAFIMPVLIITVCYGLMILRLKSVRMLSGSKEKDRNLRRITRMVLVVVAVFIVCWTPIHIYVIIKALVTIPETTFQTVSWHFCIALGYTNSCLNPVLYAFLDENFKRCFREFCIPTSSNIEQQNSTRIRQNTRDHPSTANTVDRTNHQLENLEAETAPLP
Endpoint: EC50 (µM)

1) CN(C(=O)/C=C/c1ccncc1)[C@@H]1CC[C@@]2(O)[C@H]3[C@@H](O)c4ccc(O)c5c4[C@@]2(CCN3CC2CC2)[C@H]1O5 = 12.1
2) CN(C(=O)/C=C/c1ccoc1)[C@@H]1CC[C@@]2(O)[C@H]3[C@@H](O)c4ccc(O)c5c4[C@@]2(CCN3CC2CC2)[C@H]1O5 = 1.1
3) CN(C(=O)CCCc1ccccc1)[C@@H]1CC[C@@]2(O)[C@H]3[C@@H](O)c4ccc(O)c5c4[C@@]2(CCN3CC2CC2)[C@H]1O5 = 12.9
4) CN(C(=O)/C=C/c1ccc(Cl)cc1)[C@@H]1CC[C@@]2(O)[C@H]3[C@@H](O)c4ccc(O)c5c4[C@@]2(CCN3CC2CC2)[C@H]1O5 = 0.0488

====

Quick list: Emax per entry.
target: Mu-type opioid receptor (Homo sapiens); assay: Agonist activity at human mu opioid receptor expressed in CHO-dhfr(-) cells assessed as inhibition of forskolin-induced cAMP accumulation by TR-FRET assay; assay type: functional, cell-based
Endpoint: Emax (%)

1. CN(C(=O)/C=C/c1ccccn1)[C@@H]1CC[C@@]2(O)[C@H]3[C@@H](O)c4ccc(O)c5c4[C@@]2(CCN3CC2CC2)[C@H]1O5 = 89
2. CN(C(=O)/C=C/c1ccoc1)[C@@H]1CC[C@@]2(O)[C@H]3[C@@H](O)c4ccc(O)c5c4[C@@]2(CCN3CC2CC2)[C@H]1O5 = 88
3. CN(C(=O)/C=C/c1ccc(Cl)cc1)[C@@H]1CC[C@@]2(O)[C@H]3[C@@H](O)c4ccc(O)c5c4[C@@]2(CCN3CC2CC2)[C@H]1O5 = 92

====

molecular target: Kappa-type opioid receptor (Homo sapiens); experiment: Agonist activity at human kappa opioid receptor expressed in CHO-K1 cells assessed as inhibition of forskolin-induced cAMP accumulation by TR-FRET assay; assay type: functional, cell-based
Endpoint: EC50 (nM)

1. CN(C(=O)C#Cc1ccccc1)[C@@H]1CC[C@@]2(O)[C@H]3[C@@H](O)c4ccc(O)c5c4[C@@]2(CCN3CC2CC2)[C@H]1O5 = 0.0799
2. CN(C(=O)/C=C/c1cccnc1)[C@@H]1CC[C@@]2(O)[C@H]3[C@@H](O)c4ccc(O)c5c4[C@@]2(CCN3CC2CC2)[C@H]1O5 = 0.291
3. CN(C(=O)CCc1ccccc1)[C@@H]1CC[C@@]2(O)[C@H]3[C@@H](O)c4ccc(O)c5c4[C@@]2(CCN3CC2CC2)[C@H]1O5 = 1.04
4. CN(C(=O)/C=C/c1ccc(O)cc1)[C@@H]1CC[C@@]2(O)[C@H]3[C@@H](O)c4ccc(O)c5c4[C@@]2(CCN3CC2CC2)[C@H]1O5 = 0.0953
